Tested on: SK-MEL-28 melanoma
procedure.details: NCI tumour cell line growth inhibition, 48 h
result.type: TGI

{"sample.smiles": "CC[C@H](Nc1ncnc2nc[nH]c12)c1oc2ccccc2c(=O)c1-c1cccc(F)c1", "test.result": "> 100 µM"}
{"sample.smiles": "Cc1ccc(C(=C2Sc3ccccc3S2)C(=C2Sc3ccccc3S2)c2ccc(C)s2)s1", "test.result": "> 100 µM"}
{"sample.smiles": "Cc1cc2c(cc1Cl)SC(N(N(C)C)S(=O)(=O)c1ccc(Cl)cc1)=NS2(=O)=O", "test.result": "> 100 µM"}

* * *

Test system: UO-31 renal
procedure.details: NCI tumour cell line growth inhibition, 48 h
result.type: TGI (µM)

{"molecule": "C[C@@H]1CCC2[C@@H](C)[C@@H](OCC(CO[C@H]3OC4O[C@@]5(C)CC[C@H]6[C@H](C)CCC([C@H]3C)[C@@]46OO5)OC(=O)CCC(=O)O)OC3O[C@@]4(C)CC[C@@H]1[C@]32OO4 (stereo partly specified)", "system.tested": "UO-31 renal", "sign": ">", "test.result": 46}
{"molecule": "CC1OC(OC2C(OC(=O)[C@]34CCC(C)(C)C[C@H]3C3=CC[C@@H]5[C@@]6(C)CC[C@H](OC7OC(C(=O)O)C(O)C(O)C7O)C(C)(C)[C@@H]6CC[C@@]5(C)[C@]3(C)C[C@H]4O)OCC(O)C2O)C(O)C(OC2OCC(O)(CO)C2O)C1OC1OCC(O)C(O)C1O (stereo partly specified)", "system.tested": "UO-31 renal", "sign": "=", "test.result": 8.42}
{"molecule": "O=C(Nc1ccc(Cl)cc1)c1cccc(NC2=C(Cl)C(=O)N(Cc3ccccc3)C2=O)c1", "system.tested": "UO-31 renal", "sign": "=", "test.result": 30.4}
{"molecule": "CC1=C[C@@H]2Cc3nc4cc(Cl)ccc4c(N)c3[C@H](C1)C2", "system.tested": "UO-31 renal", "sign": "=", "test.result": 17.7}
{"molecule": "N#CC12C(=O)N=C(N)C1(C#N)C(c1ccco1)NC1=C2CCCC1 (stereo unspecified)", "system.tested": "UO-31 renal", "sign": ">", "test.result": 100}
{"molecule": "O=C1OC(O)[C@@H]2[C@H]1[C@H]1CC[C@@H]2O1 (stereo partly specified)", "system.tested": "UO-31 renal", "sign": ">", "test.result": 100}
{"molecule": "COc1ccc(-c2nnc(COc3ccc(C(=O)/C=C/c4ccco4)cc3)o2)cc1", "system.tested": "UO-31 renal", "sign": "=", "test.result": 6.69}
{"molecule": "COc1cc(OC)cc(-c2cc(=O)c3c(OC)c(OC)c(OC)c(OC)c3o2)c1", "system.tested": "UO-31 renal", "sign": ">", "test.result": 100}
{"molecule": "CSC(=S)N(C)C", "system.tested": "UO-31 renal", "sign": ">", "test.result": 100}
{"molecule": "NC1(C(=O)OCc2ccccc2)CCCC1", "system.tested": "UO-31 renal", "sign": "=", "test.result": 43.3}
{"molecule": "C=C(Br)C(C)(Br)CCC(Br)C(C)(C)Cl (stereo unspecified)", "system.tested": "UO-31 renal", "sign": "=", "test.result": 32}
